- study-system: DDX5 (Homo sapiens)
- Construct: endogenous in cells; host or cells: FaDu and A549 cell lines
- Sequence (P17844 whole entry): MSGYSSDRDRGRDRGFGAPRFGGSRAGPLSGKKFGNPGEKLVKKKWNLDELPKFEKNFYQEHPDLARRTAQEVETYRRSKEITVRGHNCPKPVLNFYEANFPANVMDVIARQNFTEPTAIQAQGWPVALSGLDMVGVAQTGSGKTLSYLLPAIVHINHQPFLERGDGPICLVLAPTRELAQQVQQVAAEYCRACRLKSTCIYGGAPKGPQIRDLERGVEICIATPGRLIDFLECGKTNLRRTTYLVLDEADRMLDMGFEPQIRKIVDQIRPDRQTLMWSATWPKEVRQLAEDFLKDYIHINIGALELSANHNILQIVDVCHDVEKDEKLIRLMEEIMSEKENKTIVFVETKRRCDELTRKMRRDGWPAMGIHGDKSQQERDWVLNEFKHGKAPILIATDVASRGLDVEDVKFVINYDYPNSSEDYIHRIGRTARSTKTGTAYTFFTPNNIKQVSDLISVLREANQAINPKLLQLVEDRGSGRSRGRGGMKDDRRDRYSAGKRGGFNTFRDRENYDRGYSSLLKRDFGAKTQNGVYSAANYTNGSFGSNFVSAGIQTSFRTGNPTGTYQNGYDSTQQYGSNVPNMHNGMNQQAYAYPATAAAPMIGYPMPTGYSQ
- Assay type: cell-based
- protocol-conditions: FaDu and A549, 0, 10, 100 nM, 24 hours
endpoint-label: DDX5 degradation

• CC[C@@]1(O)C(=O)OCc2c1cc1n(c2=O)Cc2c-1nc1cc3c(c4c1c2[C@@H](N)CC4)OCO3 (single isomer, unassigned) = degrading DDX5
• CC[C@@]1(O)C(=O)OCc2c1cc1n(c2=O)Cc2c-1nc1cc3c(c4c1c2[C@@H](NC(=O)CO)CC4)OCO3 = degrading DDX5
